System: MDA-MB-231 breast
Measurement description: NCI-60 one-dose screen, 48 h
Run parameters: 100 µM
About 83,000 compounds went through this panel and 20% of them were active in at least one assay; those are over-represented in the sample as a whole. Calls of active or inactive are those of the source. How the source made its calls: active means growth percent below 10; inactive means the rest.
Classes used: yes (1) = active, no (0) = inactive

# Sample smiles, Cat
data = [
    ("CC(=O)/C=C/c1ccc(OCc2ccc(C(C)(C)C)cc2)cc1", "yes (1)"),
    ("COc1ccc(C(=O)/C=C/c2ccc(OCc3ccc(Cl)cc3)cc2)cc1OC", "yes (1)"),
    ("CCN(Cc1ccccc1)c1ccc(/C=C2\\COc3ccccc3C2=O)cc1", "no (0)"),
    ("CC(=O)/C=C/c1ccc(N(CCO)Cc2ccc(C(C)(C)C)cc2)cc1", "yes (1)"),
    ("CC(=O)/C=C/c1ccc(OCc2ccc(Cl)cc2)cc1", "yes (1)"),
    ("O=C(/C=C/c1cccc(Oc2ccc(Cl)cc2)c1)c1ccccc1", "yes (1)"),
]

###

System: SK-MEL-5 melanoma
Measurement description: NCI-60 one-dose screen, 48 h
Run parameters: 10 µM unless noted
Compounds without any hit were thinned out: in the full panel of roughly 83,000, 20% have a hit. Active and inactive are the calls of the source. How the source made its calls: active means growth percent below 10; inactive means the rest.
Possible outcomes: active, inactive

# Molecule, Measured target, Cat
data = [
    ("O=C1C(c2c[nH]c3ccccc23)=C(c2coc3cc(Br)ccc23)C(=O)N1O", "SK-MEL-5 melanoma", "inactive"),
    ("COc1ccc(-c2cc3cnc4ccccc4c3oc2=O)cc1", "SK-MEL-5 melanoma", "inactive"),
    ("O=S(=O)(Nc1ccc(F)cc1)c1ccc(-c2cnc(C3CC3)o2)cc1", "SK-MEL-5 melanoma", "inactive"),
    ("Cc1ccc(-c2nc([P+](c3ccccc3)(c3ccccc3)c3ccccc3)c(Nc3ccccc3)o2)cc1", "SK-MEL-5 melanoma", "active"),
    ("CCN1C(=S)N(CC)C2C1NC(=S)N2/N=C/C=C/c1ccccc1 (stereo not drawn)", "SK-MEL-5 melanoma", "inactive"),
    ("COc1cc2nc3cc([N+](=O)[O-])ccc3c(NCCNCC(C)(C)O)c2cc1OC", "SK-MEL-5 melanoma", "active"),
    ("N#C/C(=C\\c1ccccc1Cl)c1cc2ccccc2[nH]1", "SK-MEL-5 melanoma", "inactive"),
    ("CN1CCN(Cc2ccc(NC(=O)c3cccc(C#Cc4c(N)ncc5ccc(F)cc45)c3)cc2C(F)(F)F)CC1", "SK-MEL-5 melanoma", "active"),
    ("COC(=O)c1nc(-c2ccccc2)oc1S(=O)(=O)N(C)CCO", "SK-MEL-5 melanoma", "inactive"),
    ("O=c1c(/C=C/c2ccco2)nnc2sc(Nc3ccc(Cl)cc3)nn12", "SK-MEL-5 melanoma", "inactive"),
    ("CCN(CC)CCOc1ccccc1C", "SK-MEL-5 melanoma", "inactive"),
    ("O=C(/C=C/c1ccc([N+](=O)[O-])cc1)c1ccccc1", "SK-MEL-5 melanoma", "inactive"),
    ("COc1cc(/C=C2/C=C(c3ccc(C(C)(C)C)cc3)N(CCc3ccc(S(N)(=O)=O)cc3)C2=O)cc(OC)c1OC", "SK-MEL-5 melanoma", "inactive"),
    ("Cc1ccc(-c2nc3nc(-c4ccc(Br)cc4)nc(N4CCCNCC4)c3o2)cc1", "SK-MEL-5 melanoma", "inactive"),
    ("COc1cc(-c2nc3occn3c2-c2ccnc(NCCCNS(=O)(=O)c3ccc(O)cc3)n2)ccc1F", "SK-MEL-5 melanoma", "inactive"),
    ("COc1cc(/C=C/C(=O)c2ccc(NC(=O)CSc3nnc(-c4cc(-c5ccccc5)nc5ccccc45)n3-c3ccccc3)cc2)cc(OC)c1OC", "SK-MEL-5 melanoma", "inactive"),
    ("CCNC(=O)Nc1ncccc1OCc1ccc(F)cc1", "SK-MEL-5 melanoma", "inactive"),
    ("O=C(Cc1ccc(F)cc1)c1ccccc1", "SK-MEL-5 melanoma", "inactive"),
    ("N#CSc1c[nH]c2ccc(/C=C/C(=O)/C=C(/C=C/c3ccc4[nH]cc(SC#N)c4c3)OB(F)F)cc12", "SK-MEL-5 melanoma", "active"),
    ("Cc1ccc(-c2nc3nc(-c4ccc(F)cc4)nc(N4CCCNCC4)c3o2)cc1", "SK-MEL-5 melanoma", "active"),
    ("COc1cc(Cl)cc(-c2nn(C(=O)NS(=O)(=O)c3ccc(Cl)cc3)cc2-c2ccncc2)c1", "SK-MEL-5 melanoma", "inactive"),
    ("O=C(NNc1ccccc1)c1ncc[nH]1", "SK-MEL-5 melanoma", "inactive"),
    ("C=C(CNCCO)[C@@H]1CC[C@]2(CO)CC[C@]3(C)[C@H](CC[C@@H]4[C@@]5(C)CCC(NCCc6ccc(O)cc6)C(C)(C)[C@@H]5CC[C@]43C)[C@@H]12 (stereo partly drawn)", "SK-MEL-5 melanoma", "active"),
    ("Clc1nccc2c(-c3csc(-c4c[nH]c5ccc(Br)cc45)n3)c[nH]c12", "SK-MEL-5 melanoma", "inactive"),
    ("O=C(N=Nc1c(O)[nH]c2ccccc12)Nc1ccc(Br)cc1", "SK-MEL-5 melanoma", "inactive"),
    ("Cc1n(Cc2ccc3ccccc3c2)c(Cl)c(Cl)[n+]1Cc1ccc2ccccc2c1", "SK-MEL-5 melanoma", "active"),
    ("COc1ccc(C/C(C)=C(\\c2ccc(O)cc2)c2ccc(OCCCN(C)C)cc2)cc1", "SK-MEL-5 melanoma", "inactive"),
    ("COc1cc(/C=C2\\CCC/C(=C\\c3cc(CN4CCCC4)c(O)c(OC)c3)C2=O)cc(CN2CCCC2)c1O", "SK-MEL-5 melanoma", "inactive"),
    ("Brc1ccc(/C=C(/C2=NCCN2)n2ccc3ccccc32)cc1", "SK-MEL-5 melanoma", "inactive"),
    ("Cc1ccc(/C=C/c2c(C(=O)/C=C/c3ccccc3)c(C)nc3ccccc23)cc1", "SK-MEL-5 melanoma", "inactive"),
    ("CCOC(=O)c1c(-c2ccc(C)cc2)c(C#N)c(=O)n(-c2cccc(C(F)(F)F)c2)c1N", "SK-MEL-5 melanoma", "inactive"),
    ("CON1CCC[C@]2(C)[C@H]3CC[C@@H]4[C@H]5[C@@H](O)C(C)(C)CC[C@]5(CO)CC[C@@]4(C)[C@]3(C)CC[C@H]2C1(C)C", "SK-MEL-5 melanoma", "inactive"),
    ("c1ccc(Cc2cccc[n+]2C(c2ccccc2)c2ccccc2)cc1", "SK-MEL-5 melanoma", "inactive"),
    ("CNC(=O)c1cc(Oc2ccc3nc(NC(=O)Nc4ccc(C(F)(F)F)cc4)sc3c2)ccn1", "SK-MEL-5 melanoma", "inactive"),
    ("O=C(Cn1cc(CN2CCN(c3ccnc4cc(Cl)ccc34)CC2)nn1)Nc1cccc([N+](=O)[O-])c1", "SK-MEL-5 melanoma", "inactive"),
    ("O=C1/C(=C/c2cn(-c3ccccc3)nc2-c2ccccc2)SC(=S)N1c1ccccc1", "SK-MEL-5 melanoma", "inactive"),
    ("COC(=O)[C@H]1Cc2c([nH]c3ccccc23)[C@@H](c2cccs2)N1", "SK-MEL-5 melanoma", "inactive"),
    ("CC12OC(CC(O)C1O)n1c3ccccc3c3c4c(c5c6ccccc6n2c5c31)C(=O)N(CCN1CCOCC1)C4=O (stereo not drawn)", "SK-MEL-5 melanoma", "active"),
]
